System: Aβ40
ASSAY: In vitro BACE cell-based assay (Aβ40 sandwich ELISA, cells stably expressing APP)
TEST_CONDITIONS: Homo sapiens, HEK293, average IC50; read-out: HEK cell assay
pIC50: −log10 of the molar value.
METRIC: pIC50

Some compounds with known pIC50 results, for comparison:
NC1=N[C@@]2(CCO1)c1cc(-c3cccnc3F)ccc1Oc1c(F)cc(C3=CCCOC3)cc12 | 8.54
NC1=N[C@@]2(CCO1)c1cc(-c3cccnc3)ccc1Oc1c2cc(-c2ccnc(F)c2)nc1F | 7.79
NC1=N[C@@]2(CCS1)c1cc(-c3cccnc3F)ccc1Oc1cnc(C3=CCOCC3)cc12 | 8.33
NC1=N[C@@]2(CCO1)c1cc(-c3cccnc3F)ccc1Oc1c(F)cc(-c3ccncc3)cc12 | 8.09

(I) NC1=N[C@]2(CCS1)c1cc(-c3cccnc3F)ccc1Oc1ncc(C3=CCCOC3)cc12
(II) COc1cc2c(cn1)Oc1ccc(-c3cccc(F)c3)cc1[C@@]21COCC(N)=N1
(III) NC1=N[C@@]2(CCS1)c1cc(-c3cccnc3F)ccc1Oc1ncc(C3=CCCOC3)cc12
(IV) CC(C)(C)COc1cc2c(c(F)n1)Oc1ccc(-c3cccnc3F)cc1[C@]21COCC(N)=N1 [Example 59B]
Task: Give the ascending ranking of the items by reported pIC50. Rank the items, then write their labels in that order.
Result: I, IV, II, III

* * *

System: Aβ40
ASSAY: In vitro BACE cell-based assay (Aβ40 sandwich ELISA, cells stably expressing APP)
TEST_CONDITIONS: Homo sapiens, HEK293, average IC50, cell assay, HEK cells
pIC50: −log10 of the molar value.
METRIC: pIC50

NC1=N[C@]2(CCO1)c1cc(-c3cccnc3F)ccc1Oc1cnc(C3=CCOCC3)cc12 | 6.24

(A) CC1(COc2cc(F)c3c(c2)[C@]2(CCOC(N)=N2)c2cc(-c4cccnc4)ccc2O3)COC1
(B) CC(C)(C)C#Cc1cnc2c(c1)[C@@]1(COCC(N)=N1)c1cc(-c3cncnc3)c(F)cc1O2
Task: Name the one with the greater pIC50 value, either A or B as given. Lab note: record the label of whichever item you select.
Result: A
(A: 8.23, B: 6.56)

(I) CC(C)(C)COc1cc2c(cn1)Oc1ccc(N3CCC(F)(F)CC3)cc1[C@@]21COCC(N)=N1
(II) NC1=N[C@@]2(COC1)c1cc(-c3cncc(F)c3)ccc1Oc1cnc(-c3cncc(F)c3)cc12
(III) CC#Cc1cncc(-c2ccc3c(c2)[C@@]2(COCC(N)=N2)c2cc(C4=CCOCC4)cc(F)c2O3)c1
Task: Highest pIC50 first, then in falling order down to the smallest. Rank the items, then write their labels in that order.
Result: II, III, I

* * *

System: Aβ40
ASSAY: In vitro BACE cell-based assay (Aβ40 sandwich ELISA, cells stably expressing APP)
TEST_CONDITIONS: Homo sapiens, HEK293, average IC50, cell assay, HEK cells
pIC50: −log10 of the molar value.
METRIC: pIC50

CC1(C#Cc2cc(F)c3c(c2)[C@]2(COCC(N)=N2)c2cc(-c4cccnc4F)ccc2O3)COC1 | 8.72

(I) NC1=N[C@@]2(COC1)c1cc(-c3cccnc3F)ccc1Oc1cnc(-c3ccc(F)c(F)c3)cc12
(II) NC1=N[C@@]2(COC1)c1cc(-c3cccnc3F)ccc1Oc1cnc(C3CCOCC3)cc12
(III) NC1=N[C@@]2(COC1)c1cc(Br)ccc1Oc1c2cc(N2CCC(F)(F)CC2)nc1F
Task: Give the ascending ranking of the items by reported pIC50. Rank the items, then write their labels in that order.
Result: III, I, II
(III: 6.96, I: 8.57, II: 9.05)

* * *

Tested on: Aβ40
ASSAY: In vitro BACE cell-based assay (Aβ40 sandwich ELISA, cells stably expressing APP)
TEST_CONDITIONS: Homo sapiens, HEK293, average IC50, cell assay, HEK cells
METRIC: IC50 (nM)

NC1=N[C@@]2(COC1)c1cc(-c3cncc(F)c3)ccc1Oc1cnc(C3=CCCOC3)cc12 | 0.2

(P) NC1=N[C@@]2(CCO1)c1cc(-c3cccnc3F)ccc1Oc1c2cc(-c2ccnc(F)c2)nc1F
(Q) CC(C)(C)COc1cc2c(cn1)Oc1ccc(-c3cncc(F)c3)cc1[C@@]21COCC(N)=N1
(R) NC1=N[C@]2(CCO1)c1cc(-c3cccnc3F)ccc1Oc1cnc(-c3cccnc3)cc12
(S) NC1=NC2(CCO1)c1cc(-c3cccnc3F)ccc1Oc1c2cc(-c2cccnc2F)nc1F (centres unmarked)
(T) COc1ccc2c(c1)C1(CCSC(N)=N1)c1cc(-c3cncnc3)ccc1O2 (centres unmarked)
Task: Give the ascending ranking of the items by reported IC50. Rank the items, then write their labels in that order.
Result: Q, P, S, R, T

(a) NC1=N[C@@]2(COC1)c1cc(-c3cncc(F)c3)ccc1Oc1cnc(-c3ccc(F)c(F)c3)cc12
(b) CC(C)(F)COc1cc(F)c2c(c1)[C@@]1(COCC(N)=N1)c1cc(-c3cccnc3F)ccc1O2 [37B]
Task: Which value of IC50 is smaller, the one for a or the one for b ? Lab note: record the label of whichever item you select.
Result: a
(a: 2.3 nM, b: 64.1 nM)

(I) NC1=N[C@@]2(COC1)c1cc(-c3cccnc3F)ccc1Oc1cnc(N3CCC(F)(F)CC3)cc12
(II) CC1(COc2cc(F)c3c(c2)[C@]2(COCC(N)=N2)c2cc(-c4cccnc4F)ccc2O3)COC1
Task: Which value of IC50 is smaller, the one for I or the one for II ? Lab note: record the label of whichever item you select.
Result: II

(I) NC1=N[C@@]2(COC1)c1cc(-c3cccnc3F)ccc1Oc1ncc(N3CC[C@@H](F)C3)cc12
(II) CC(C)(C)C#Cc1cnc2c(c1)[C@]1(COCC(N)=N1)c1cc(-c3cccnc3F)ccc1O2
(III) NC1=N[C@@]2(COC1)c1cc(O)ccc1Oc1c(F)cc(-c3ccnc(F)c3)cc12
Task: Give the ascending ranking of the items by reported IC50. Rank the items, then write their labels in that order.
Result: II, I, III

(P) CC(C)(F)COc1cc(F)c2c(c1)[C@]1(COCC(N)=N1)c1cc(-c3cccnc3F)ccc1O2 [Example 37A]
(Q) NC1=N[C@@]2(COC1)c1cc(-c3cccnc3)ccc1Oc1c(F)cc(C3=CCCOC3)cc12
Task: Name the one with the greater IC50 value, either P or Q as given. Lab note: record the label of whichever item you select.
Result: P

(I) NC1=N[C@@]2(CCO1)c1cc(-c3cncc(F)c3)ccc1Oc1cnc(C3=CCOCC3)cc12
(II) NC1=NC2(CCS1)c1cc(-c3cccnc3)ccc1Oc1ccc(-c3cccnc3)cc12
(III) NC1=N[C@@]2(CCO1)c1cc(-c3cccnc3F)ccc1Oc1cnc(C3CCOCC3)cc12
(IV) NC1=N[C@@]2(COC1)c1cc(-c3cccnc3)ccc1Oc1cnc(-c3ccc(F)c(F)c3)cc12
Task: Give the ascending ranking of the items by reported IC50. Rank the items, then write their labels in that order.
Result: IV, I, III, II

(I) CC#Cc1cncc(-c2ccc3c(c2)[C@@]2(COCC(N)=N2)c2cc(-c4ccnc(F)c4)ncc2O3)c1
(II) CC(C)(C#N)COc1cc2c(cn1)Oc1ccc(-c3cccc(F)c3)cc1[C@@]21COCC(N)=N1
(III) CC(C)(F)COc1cc(F)c2c(c1)[C@@]1(CCOC(N)=N1)c1cc(-c3cccnc3)ccc1O2
(IV) NC1=N[C@]2(COC1)c1cc(-c3cccnc3F)ccc1Oc1c(F)cc(-c3ccnc(F)c3)cc12 [36B]
Task: Highest IC50 first, then in falling order down to the smallest. Rank the items, then write their labels in that order.
Result: IV, III, I, II

(a) NC1=N[C@@]2(COC1)c1cc(-c3cc(Cl)ccc3F)ccc1Oc1ncc(N3CCOCC3)cc12
(b) COc1cc(F)c2c(c1)[C@]1(COCC(N)=N1)c1cc(-c3cccnc3F)ccc1O2
(c) NC1=N[C@]2(CCO1)c1cc(-c3cccnc3F)ccc1Oc1c2cc(-c2cccnc2F)nc1F
Task: Highest IC50 first, then in falling order down to the smallest. Rank the items, then write their labels in that order.
Result: c, b, a
(c: 1900 nM, b: 15.6 nM, a: 3.9 nM)

* * *

Observed IC50 values for BACE (Homo sapiens, UniProt P56817) are listed in what follows.
METRIC: IC50 (nM)

Some compounds with known IC50 results, for comparison:
NC1=N[C@]2(CCO1)c1cc(-c3cccnc3F)ccc1Oc1cnc(C3=CCOCC3)cc12 | 2820
NC1=N[C@@]2(COC1)c1cc(-c3cccnc3F)ccc1Oc1c(F)cc(N3CCOCC3)cc12 [Example 35A] | 0.5

(a) NC1=N[C@@]2(CCO1)c1cc(-c3cncc(F)c3)ccc1Oc1cnc(-c3cncc(F)c3)cc12
(b) CC1(C#Cc2cnc3c(c2)[C@]2(COCC(N)=N2)c2cc(-c4cccnc4F)ccc2O3)COC1
(c) CC(C)(F)COc1cc(F)c2c(c1)[C@@]1(CCOC(N)=N1)c1cc(-c3cccnc3F)ccc1O2
(d) N#Cc1cccc(-c2ccc3c(c2)[C@]2(CCOC(N)=N2)c2cc(C4=CCCOC4)nc(F)c2O3)c1
(e) NC1=NC2(CCS1)c1cc(-c3cccnc3)ccc1Oc1ccc(-c3cccnc3)cc12
Task: Highest IC50 first, then in falling order down to the smallest. Rank the items, then write their labels in that order.
Result: c, d, e, a, b
(c: 1370 nM, d: 541 nM, e: 81.8 nM, a: 6.2 nM, b: 2 nM)
